Test system: RPA70 mRNA
Assay: RPA70 mRNA expression in A549 cells, Northern blot
Format: cell-based, human
Conditions: 400 nM oligonucleotide with LIPOFECTIN, RNA 24 h after addition
Description: Antisense treatments were performed with phosphorothioate oligodeoxynucleotides. Cells were cultured in 6-well plates to 60-80% confluency for use in oligonucleotide treatments. […] Target mRNA levels were assessed by Northern blotting with target specific random primed [α-^32 P]dCTP-labeled cDNA probes, as described below. cDNAs for probes were obtained by specific RT-PCR of cellular RNAs. […] RNA on the blots was quantified by phosphorimaging on a Fuji FLA-2000. […]
In the oligonucleotide strings, read from the 5' end, every base follows the letter of its sugar. An asterisk marks phosphorothioate; unmarked linkages are phosphodiester. Other units and linkages are bracketed, terminal groups are in braces. A string of capitals states the bases alone. d = 2'-deoxy (DNA)
Recorded % mRNA EXPRESSION by entry

substance	system.under.test	% mRNA EXPRESSION
ISIS 12782: phosphorothioate oligodeoxynucleotide TGATGCTCATGACCAGCCTT, SEQ ID NO 7, coding 1881-1900 (dT*dG*dA*dT*dG*dC*dT*dC*dA*dT*dG*dA*dC*dC*dA*dG*dC*dC*dT*dT)	RPA70 mRNA	8%
ISIS 12789: phosphorothioate oligodeoxynucleotide TGACTTACGACATAATTCCT, SEQ ID NO 14, 3'-UTR 2210-2229 (dT*dG*dA*dC*dT*dT*dA*dC*dG*dA*dC*dA*dT*dA*dA*dT*dT*dC*dC*dT; antisense)	RPA70 mRNA	62%
